Record form. Attribute: log10 kDPPH. Fill in for each entry.
Experiment: Antioxidant potential was assessed from reducing activity against 2,2,di-phenyl-1-picrylhydrazyl.
Kindly note that the scale is log10 and the underlying kDPPH is in M⁻¹ s⁻¹.

Measured log10 kDPPH, "CC(=O)C1c2cccc(O)c2C(=O)c2c(O)cccc21" : 1.25

Reported log10 kDPPH for "CN(C)C=C1c2cccc(O)c2C(=O)c2c(O)cccc21" was 1.21

Input O=C(c1ccccc1O)c1ccccc1O [2,2'-DIHYDROXYBENZPHENONE] . Output log10 kDPPH: 0.32

Record summary for "CC(=O)Oc1cccc2c1C(=O)c1c(cccc1OC(C)=O)C2" : reported log10 kDPPH = 0.56

Value of measured log10 kDPPH for the entry "O=C1C=CC(=O)c2c(O)cccc21" : 0.82

Lab note: "O=C1c2cccc(Cl)c2Cc2c(Cl)cccc21" gave log10 kDPPH of 0.53

"O=C1c2ccccc2Cc2ccc(O)c(O)c21" has a reported log10 kDPPH of 1.62

----------
Record form. Attribute: IC50. Fill in for each entry.
Target: Arachidonate 5-lipoxygenase (Bos taurus, UniProt Q9BEG3)
Experiment: 5-LO inhibitory activity was determined by inhibition of LTB4 biosynthesis in bovine polymorphonuclear leukocytes (PMNL)
Format: functional, cell-based

The reported IC50 of the compound "Cc1cc(O)c2c(c1)Cc1cccc(O)c1C2=O" was > 30 µM

Just so you know, measured IC50 for "N#Cc1ccc2c(c1O)C(=O)c1c(O)cccc1C2" came out at 8 µM

// field: IC50; key: O=C1c2c(O)cccc2C([C@@H]2O[C@H](CO)[C@@H](O)[C@H](O)[C@H]2O)c2cc(CO)cc(O)c21 (stereo partly specified) ; value = > 30 µM

Per the record, "O=C1c2c(O)cccc2Cc2cc(CO)cc(O)c21" has IC50 of 30 µM

What the record says about "O=C1c2c(O)cccc2C(O)c2cccc(O)c21" : IC50 is > 30 µM

Recorded IC50 (compound "Cc1cc(O)c2c(=O)c3c(O)cc(O)c4c5c(O)cc(O)c6c(=O)c7c(O)cc(C)c8c1c2c(c34)c(c78)c65" ): > 30 µM

IC50 reading for "Nc1cccc2c1Cc1ccccc1C2=O" : 20 µM

The reported IC50 of the compound "O=C(c1ccccc1)c1cccc2c1C(=O)c1c(O)cccc1C2" was 27 µM

Record "Cc1ccc2c(c1O)C(=O)c1c(O)cccc1C2" , field IC50: > 30 µM

The measured IC50 associated with "CCC1c2cccc(O)c2C(=O)c2c(O)cccc21" reads > 30 µM

response.value for "CCSC1c2cccc(O)c2C(=O)c2c(O)cccc21" (field: IC50) = > 30 µM

----------
Target: Arachidonate 5-lipoxygenase (Bos taurus, UniProt Q9BEG3)
Sequence (Q9BEG3 whole entry): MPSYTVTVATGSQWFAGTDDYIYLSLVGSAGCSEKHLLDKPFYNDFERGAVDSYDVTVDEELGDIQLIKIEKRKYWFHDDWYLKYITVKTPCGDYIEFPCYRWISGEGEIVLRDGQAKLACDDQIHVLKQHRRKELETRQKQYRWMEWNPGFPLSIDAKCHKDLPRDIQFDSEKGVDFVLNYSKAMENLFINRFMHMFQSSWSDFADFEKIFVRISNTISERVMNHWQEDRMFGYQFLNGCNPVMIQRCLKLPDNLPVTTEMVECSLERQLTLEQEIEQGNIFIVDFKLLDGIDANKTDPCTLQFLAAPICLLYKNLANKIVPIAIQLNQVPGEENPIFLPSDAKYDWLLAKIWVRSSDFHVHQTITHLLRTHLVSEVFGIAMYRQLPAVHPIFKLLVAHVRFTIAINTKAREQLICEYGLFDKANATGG
Assay: 5-LO inhibitory activity was determined by inhibition of LTB4 biosynthesis in bovine polymorphonuclear leukocytes (PMNL)
# condition met = IC50 below 9 µM (exclusive); condition not met = IC50 at/above 9 µM

Lab note: IC50 threshold 9 µM. Does this compound come in strictly under it? "COc1cccc2c1C(=O)c1c(cccc1OC)C2"
condition not met

Would you kindly verify if IC50 of "O=C1C=CC(=O)c2c(O)cccc21" is strictly less than 9 µM?
condition not met

Decide: IC50 of "CC(=O)Oc1cccc2c1C(=O)c1c(O)cccc1C2" strictly below 9 µM?
condition met

Find out if reported IC50 for "O=C1c2c(O)cccc2C(SCc2ccccc2)c2cccc(O)c21" is less than 9 µM
condition not met

Report whether reported IC50 is lower than 9 µM (strictly) for "O=C1c2c(Cl)cccc2Cc2cccc(Cl)c21"
condition met

Does the reported IC50 of "O=C1c2ccccc2Cc2cccc(O)c21" stay below 9 µM?
condition not met

In the record for "O=Cc1ccc2c(c1O)C(=O)c1c(O)cccc1C2" , is IC50 less than 9 µM?
condition met

Answer whether the compound "COC1c2cccc(O)c2C(=O)c2c(O)cccc21" has IC50 strictly less than 9 µM
condition not met

# TODO verify IC50 < 9 µM strictly for this compound: "O=C1c2ccccc2Cc2c1ccc(O)c2O"
condition met

Just wondering, is IC50 of "O=C1c2cccc(O)c2C(=O)c2c(O)cccc21" below 9 µM?
condition not met

----------
Would you kindly list logP for each of these compounds?
Test: Partition coefficient (logP)
Assay type: physicochemical
Settings: octanol/water

response.value for "O=C(O)c1cc(O)c2c(c1)Cc1cccc(O)c1C2=O" (field: logP) = 2.96

// "O=C1c2c(O)cccc2C(C2c3cccc(O)c3C(=O)c3c(O)cccc32)c2cccc(O)c21" : logP value = 5.01

Data point: "Cc1cc(O)c2c(c1)Cc1cccc(O)c1C2=O" ; logP = 4.8

Measured logP of "O=C1c2c(O)cccc2C(SCc2ccccc2)c2cccc(O)c21" : 4.87

What the record says about "Cc1cc(O)c2c(=O)c3c(O)cc(O)c4c5c(O)cc(O)c6c(=O)c7c(O)cc(C)c8c1c2c(c34)c(c78)c65" : logP is 5.02

// sample O=C(c1ccccc1O)c1ccccc1O [2,2'-DIHYDROXYBENZPHENONE] , its logP was 2.66

compound "COc1cccc2c1C(=O)c1c(O)cccc1C2" , logP observed: 3.44

The reported logP of the compound "O=C(c1ccccc1)c1cccc2c1C(=O)c1c(O)cccc1C2" was 3.99

logP in this record for "O=C1c2ccccc2Cc2ccc(O)c(O)c21" : 3.19

Form field logP, entry "Cc1ccc2c(c1O)C(=O)c1c(O)cccc1C2" : 4.99

Record "O=C1c2c(O)cccc2C(C(=O)c2ccccc2)c2cccc(O)c21" , field logP: 3.81

So for "Cc1cc(O)c2c(c1)Cc1cc(O)cc(O)c1C2=O" , the logged logP turned out to be 3.9

Form: compound = O=C1c2c(O)cccc2C([C@@H]2O[C@H](CO)[C@@H](O)[C@H](O)[C@H]2O)c2cc(CO)cc(O)c21 (some centres not stated) ; logP = 1.83

According to the records, this compound "Nc1cccc2c1Cc1ccccc1C2=O" displays logP of 2.46

The reported value for "CCCCc1ccc2c(c1O)C(=O)c1c(O)cccc1C2" in terms of logP is 5.89

Entry under test: "CCC(=O)c1ccc2c(c1O)C(=O)c1c(O)cccc1C2" . Its logP was 4.59

logP reported for this compound "CC(C)=CCc1c(C)cc(O)c2c1Cc1c(CC=C(C)C)c(O)cc(O)c1C2=O" : 6.56

Entry under test: "O=C1c2c(O)cccc2C(Cc2ccccc2)(Cc2ccccc2)c2cccc(O)c21" . Its logP was 4.33

Sure, the documented logP for "CC(=O)Oc1cccc2c1C(=O)c1c(O)cccc1C2" is 3.25

response.value for "COc1cccc2c1Cc1c(OC)cccc1C2=O" (field: logP) = 3.68

Entry under test: "CC(C)=CCc1c(C)c(CC=C(C)C)c2c(c1O)C(=O)c1c(O)cc(O)c(CC=C(C)C)c1C2" . Its logP was 8.01

Input "Oc1cccc(O)c1O" . Output logP: 1.19

----------
Assay: Antioxidant potential was assessed from reducing activity against 2,2,di-phenyl-1-picrylhydrazyl.
# kDPPH >= 8 M⁻¹ s⁻¹ gives met, anything below gives not met

State whether the measured kDPPH reaches 8 M⁻¹ s⁻¹, counting equality as reaching it, for "O=C1c2c(O)cccc2Cc2cc(CO)cc(O)c21"
met

I'd appreciate it if you could say whether "O=C1c2c(O)cccc2C(Br)c2cccc(O)c21" has kDPPH at least equal to 8 M⁻¹ s⁻¹.
met

Determine whether this compound has kDPPH no lower than 8 M⁻¹ s⁻¹: "O=C1c2cccc(OCc3ccccc3)c2Cc2c(OCc3ccccc3)cccc21"
not met

Entry "Cc1cc(O)c2c(c1)Cc1cccc(O)c1C2=O" : is its kDPPH no less than 8 M⁻¹ s⁻¹?
met

Decide: kDPPH of "O=C1c2c(O)cccc2Cc2cccc(O)c21" >= 8 M⁻¹ s⁻¹?
met

Dear colleague, could you confirm whether "Oc1cccc(O)c1O" has kDPPH at or above 8 M⁻¹ s⁻¹?
met

# bool: kDPPH of "COC(=O)c1cc(O)c2c(c1)Cc1cccc(O)c1C2=O" >= 8 M⁻¹ s⁻¹
met

Threshold query (kDPPH >= 8 M⁻¹ s⁻¹) on "O=CC1c2cccc(O)c2C(=O)c2c(O)cccc21"
not met

Reported kDPPH reaches at least 8 M⁻¹ s⁻¹ for "CC(C)=CCc1c(C)c(CC=C(C)C)c2c(c1O)C(=O)c1c(O)cc(O)c(CC=C(C)C)c1C2" ?
not met

Does kDPPH meet or surpass 8 M⁻¹ s⁻¹ for "O=C1c2ccccc2Cc2ccccc21" ?
not met

Please tell me: is the compound "O=C1c2cccc(O)c2Cc2cccc(O)c21" at or over 8 M⁻¹ s⁻¹ in terms of kDPPH?
met

Kindly determine if kDPPH recorded for "Cc1cc(O)c2c(c1)Cc1cc(O)cc(O)c1C2=O" is above or exactly 8 M⁻¹ s⁻¹.
met

Please tell me: is the compound "Cc1cc(O)c2c(=O)c3c(O)cc(O)c4c5c(O)cc(O)c6c(=O)c7c(O)cc(C)c8c1c2c(c34)c(c78)c65" at or over 8 M⁻¹ s⁻¹ in terms of kDPPH?
not met

hey, is kDPPH for this one >= 8 M⁻¹ s⁻¹? "N#Cc1ccc2c(c1O)C(=O)c1c(O)cccc1C2"
met

Check if kDPPH >= 8 M⁻¹ s⁻¹ (inclusive). Item: "Cc1ccc2c(c1O)C(=O)c1c(O)cccc1C2"
met
